- Test system: Setaria viridis (SETVI)
- measurement_protocol: Herbicidal pre-emergence action, test D, single sowings (Table D3)
- Assay type: in vivo
- recorded_conditions: dosage 80 g/ha, scored after about 3 weeks
readout_name: Pre-emergence action against Setaria viridis (SETVI) (%)
Supply the numeric figure in %, leaving out any unit text.

The cases that follow already have their Pre-emergence action against Setaria viridis (SETVI) on record.
Fc1cc(Cl)cnc1Oc1cccc(F)c1-c1cc(C(F)F)no1 [Example 1-19]: 100
Fc1cc(Cl)cnc1Oc1ccccc1-c1cc(C(F)F)no1 [Example 1-36]: 80
FC(F)c1cc(-c2ccccc2Oc2ccc(Cl)cn2)on1 [Example 1-35]: 100

Please turn your attention to the following entry.
Response field Pre-emergence action against Setaria viridis (SETVI) (Setaria viridis (SETVI)) for item Fc1cccc(Oc2ccc(Cl)cn2)c1-c1cc(C(F)F)no1 [Example 1-17] : 100

###

- Test system: Setaria viridis (SETVI)
- measurement_protocol: Herbicidal pre-emergence action, test C (Table C4)
- Type: in vivo
- recorded_conditions: dosage 1280 g/ha; visual scoring after about 3 weeks; 100% = plants have died, 0% = like control plants
The following compounds are listed with their measured Pre-emergence action against Setaria viridis (SETVI) values.
Note: state the figure and append the unit.

FC(F)c1cc(-c2c(Br)cccc2Oc2ccc(Cl)cn2)on1: 100%
N#Cc1ccc(Oc2cccc(F)c2-c2cc(C(F)(F)F)on2)nc1: 100%
CCc1cccc(Oc2ccc(Cl)cn2)c1-c1cc(C(F)F)no1: 100%
Cc1ccc(-c2cc(C(F)F)no2)c(Oc2ncccc2F)c1: 100%

Shift focus to the following entry.
Reported Pre-emergence action against Setaria viridis (SETVI) of CCc1ccc(Oc2cccc(CC)c2-c2cc(C(F)F)no2)nc1 : 100%

###

- System: Digitaria sanguinalis (DIGSA)
- measurement_protocol: Herbicidal pre-emergence action, test D, single sowings (Table D2)
- Format: in vivo
- recorded_conditions: 80 g/ha; scored visually after about 3 weeks; 100% = plants have died, 0% = like control plants
readout_name: Pre-emergence action against Digitaria sanguinalis (DIGSA) (%)
Your answer should be a plain number; it is taken to be in %.

Worked examples, 3 compounds total:
Fc1cc(Cl)cnc1Oc1ccccc1-c1cc(C(F)F)no1: 100
FC(F)c1cc(-c2ccccc2Oc2ccc(Cl)cn2)on1: 100
Fc1cccc(Oc2ccc(Cl)cn2)c1-c1cc(C(F)F)no1: 90

Okay, next one:
response.value for Fc1cc(Cl)cnc1Oc1cccc(F)c1-c1cc(C(F)F)no1 (field: Pre-emergence action against Digitaria sanguinalis (DIGSA)) = 100

###

Reported Pre-emergence action against Echinochloa crus-galli (ECHCG) by item:
- Tested on: Echinochloa crus-galli (ECHCG)
- measurement_protocol: Herbicidal pre-emergence action, test C (Table C1)
- Type: in vivo
- recorded_conditions: dosage 1280 g/ha; visual scoring after about 3 weeks; 100% = plants have died, 0% = like control plants

Here's what some known entries look like.
Fc1cccnc1Oc1cccc(F)c1-c1cc(C(F)F)no1 [Example 1-23]: 100%
Fc1cc(Cl)cnc1Oc1ccccc1-c1cc(C(F)F)no1 [Example 1-36]: 100%
FC(F)c1cc(-c2ccccc2Oc2ccc(Cl)cn2)on1 [Example 1-35]: 100%
FC(F)c1cc(-c2c(Br)cccc2Oc2ccc(Cl)cn2)on1 [Example 1-53]: 90%
N#Cc1cccc(Oc2ccc(Cl)cn2)c1-c1cc(C(F)F)no1 [Example 1-55]: 100%
Cc1cc(C)c(-c2cc(C(F)F)no2)c(Oc2ccccn2)c1 [Example 1-86]: 100%
N#Cc1ccc(Oc2cccc(F)c2-c2cc(C(F)F)on2)nc1 [Example 1-11]: 90%
Fc1cc(Cl)cnc1Oc1ccccc1-c1cncc(C(F)(F)F)c1 [Example 1-72]: 100%

Form field Pre-emergence action against Echinochloa crus-galli (ECHCG), entry Fc1cccc(Oc2ccccn2)c1-c1cc(C(F)F)no1 [Example 1-16] : 90%

Sure, the documented Pre-emergence action against Echinochloa crus-galli (ECHCG) for Fc1ccc(Oc2ncc(Cl)cc2F)c(-c2cc(C(F)F)on2)c1 [Example 1-31] is 100%

Measured Pre-emergence action against Echinochloa crus-galli (ECHCG) of Fc1cc(Cl)cnc1Oc1cccc(F)c1-c1cc(C(F)F)no1 [Example 1-19] : 100%

Recorded result, Cc1cccc(Oc2ncc(Cl)cc2F)c1-c1cc(C(F)F)on1 [Example 1-10] , Pre-emergence action against Echinochloa crus-galli (ECHCG): 90%

The reported value for FC(F)c1cc(-c2ccccc2Oc2ccccn2)on1 [Example 1-38] in terms of Pre-emergence action against Echinochloa crus-galli (ECHCG) is 100%

GET /value?item= Fc1cccc(Oc2ccc(Br)cn2)c1-c1cc(C(F)F)no1 [Example 1-40] &field=Pre-emergence action against Echinochloa crus-galli (ECHCG) returns 100%

// Cc1cccc(Oc2ncc(Cl)cc2F)c1-c1cc(C(F)F)no1 [Example 1-20] : Pre-emergence action against Echinochloa crus-galli (ECHCG) value = 90%

Measured Pre-emergence action against Echinochloa crus-galli (ECHCG), CCc1cccc(Oc2ccc(Cl)cn2)c1-c1cc(C(F)F)no1 [Example 1-59] : 90%

Sure, the documented Pre-emergence action against Echinochloa crus-galli (ECHCG) for Cc1cccc(Oc2ccc(Cl)cn2)c1-c1cc(C(F)F)no1 [Example 1-18] is 100%

For reference, reported Pre-emergence action against Echinochloa crus-galli (ECHCG) for Fc1cccc(Oc2ccc(Cl)cn2)c1-c1cc(C(F)F)no1 [Example 1-17] stands at 100%

###

Documented Post-emergence action against Lolium rigidum (LOLRI) across a set of compounds
- Tested on: Lolium rigidum (LOLRI)
- measurement_protocol: Herbicidal post-emergence action (Table B2)
- Format: in vivo
- recorded_conditions: 1280 g/ha; rated visually after about 3 weeks; 100% = plants have died, 0% = like control plants
Numbers only; they are read as %.

Just so you know, measured Post-emergence action against Lolium rigidum (LOLRI) for Fc1cccnc1Oc1cccc(F)c1-c1cc(C(F)F)no1 came out at 100

Query Fc1ccc(Oc2ncc(Cl)cc2F)c(-c2cc(C(F)F)on2)c1 yields Post-emergence action against Lolium rigidum (LOLRI) of 90

GET /value?item= Cc1cccc(Oc2ccc(Cl)cn2)c1-c1cc(C(F)F)no1 &field=Post-emergence action against Lolium rigidum (LOLRI) returns 100

###

Quick reference for Pre-emergence action against viola tricolor (VIOTR) among some molecules
- Test system: viola tricolor (VIOTR)
- measurement_protocol: Herbicidal pre-emergence action, test D, single sowings (Table D7)
- Type: in vivo
- recorded_conditions: dosage 80 g/ha, scored after about 3 weeks
Give just the number in %; leave the unit off.

Fc1cc(Cl)cnc1Oc1cccc(F)c1-c1cc(C(F)F)no1: 100

The observed Pre-emergence action against viola tricolor (VIOTR) for Fc1cccc(Oc2ccc(Cl)cn2)c1-c1cc(C(F)F)no1 when tested with viola tricolor (VIOTR) stands at 100

Pre-emergence action against viola tricolor (VIOTR) for viola tricolor (VIOTR) with input FC(F)c1cc(-c2ccccc2Oc2ccc(Cl)cn2)on1 equals 90

Sample Fc1cc(Cl)cnc1Oc1ccccc1-c1cc(C(F)F)no1 , system: viola tricolor (VIOTR). Its Pre-emergence action against viola tricolor (VIOTR) is 100

###

// reported Pre-emergence action against Abutilon theophrasti (ABUTH) per item
- Test system: Abutilon theophrasti (ABUTH)
- measurement_protocol: Herbicidal pre-emergence action, test C (Table C5)
- Assay type: in vivo
- recorded_conditions: dosage 320 g/ha; visual scoring after about 3 weeks; 100% = plants have died, 0% = like control plants
Response body: numeric value in %, unit text excluded.

Fc1cc(Cl)cnc1Oc1cccc(F)c1-c1cc(C(F)F)no1 [Example 1-19]: 100
Fc1cccnc1Oc1cccc(F)c1-c1cc(C(F)F)no1 [Example 1-23]: 100
Cc1cccc(Oc2ccc(Cl)cn2)c1-c1cc(C(F)F)no1 [Example 1-18]: 100
Cc1ccnc(-c2ccccc2Oc2ccc(Cl)cn2)c1 [Example 1-81]: 100
Cc1cccc(Oc2ncc(Cl)cc2F)c1-c1cc(C(F)F)no1 [Example 1-20]: 90

Kindly note the recorded Pre-emergence action against Abutilon theophrasti (ABUTH) for Cc1cc(C)c(-c2cc(C(F)F)no2)c(Oc2ccccn2)c1 [Example 1-86] , which is 90

response.value for Fc1ccc(Oc2ncc(Cl)cc2F)c(-c2cc(C(F)F)on2)c1 [Example 1-31] (field: Pre-emergence action against Abutilon theophrasti (ABUTH)) = 90

# compound Fc1cccc(Oc2ccccn2)c1-c1cc(C(F)F)no1 [Example 1-16] ; its Pre-emergence action against Abutilon theophrasti (ABUTH) = 100

Lookup result for Fc1cc(Cl)cnc1Oc1ccccc1-c1cncc(C(F)(F)F)c1 [Example 1-72] ; measured Pre-emergence action against Abutilon theophrasti (ABUTH): 100

###

- Tested on: Amaranthus retroflexus (AMARE)
- measurement_protocol: Herbicidal pre-emergence action, test C (Table C6)
- Type: in vivo
- recorded_conditions: dosage 320 g/ha; visual scoring after about 3 weeks; 100% = plants have died, 0% = like control plants
- Excerpt: Seeds of mono- and dicotyledonous weed plants were placed in plastic pots in sandy loam soil (doubly sown with one species each of mono- or dicotyledonous weed plants per pot) and covered with soil. […] After about 3 weeks, the effect of the preparations was scored visually in comparison with untreated controls as percentages. […]
readout_name: Pre-emergence action against Amaranthus retroflexus (AMARE) (%)
Give the quantity in %, number only.

In the examples that follow, each entry is paired with its recorded Pre-emergence action against Amaranthus retroflexus (AMARE).
Cn1nc(-c2cc(F)ccc2Oc2ccc(Cl)cn2)cc1C(F)F: 90
COc1ccc(-c2cc(C(F)F)no2)c(Oc2ccc(Cl)cn2)c1: 100
CCc1cccc(Oc2ccc(Cl)cn2)c1-c1cc(C(F)F)no1: 100
N#Cc1cccc(Oc2ccc(Cl)cn2)c1-c1cc(C(F)F)no1: 100
FC(F)c1cc(-c2c(Oc3ccc(Cl)cn3)cccc2C2CC2)on1: 90
Fc1cc(Cl)cnc1Oc1ccccc1-c1ccc(Cl)cn1: 90
Cc1cccc(Oc2ncc(Cl)cc2F)c1-c1cc(C(F)F)on1: 100
Cc1cc(C)c(-c2cc(C(F)F)no2)c(Oc2ccccn2)c1: 100
Fc1cccc(Oc2ccc(Cl)cn2)c1-c1cc(C(F)F)on1: 100
Cn1nc(-c2c(F)cccc2Oc2ncc(Cl)cc2F)cc1C(F)F: 100

The value of Pre-emergence action against Amaranthus retroflexus (AMARE) measured for the compound N#Cc1ccc(Oc2cccc(F)c2-c2cc(C(F)(F)F)on2)nc1 turned out to be 100

Just so you know, measured Pre-emergence action against Amaranthus retroflexus (AMARE) for FC(F)c1cc(-c2c(Br)cccc2Oc2ccc(Cl)cn2)on1 came out at 100

Measured Pre-emergence action against Amaranthus retroflexus (AMARE) of FC(F)c1cc(-c2ccccc2Oc2ccccn2)on1 : 100

Hello, the source for this data is patent US12052991B2, in case you need it.
